What TGI was measured for each of the following?
- Test system: SK-MEL-5 melanoma
- protocolText: NCI tumour cell line growth inhibition, 48 h

Some compounds with recorded TGI:
{"compound": "CC1=C(C)SC(=C2Sc3c(n(C)c(=O)n(C)c3=O)S2)S1", "observedValue": "> 100 µM"}
{"compound": "COc1cc(NCCCCCN=C(N)NC(N)=NC(C)C)c2ncccc2c1", "observedValue": "3.01 µM"}
{"compound": "CC1(C)CCC[C@]2(C)c3ccccc3C(=O)CC12 (stereo not given in full)", "observedValue": "46.4 µM"}
{"compound": "O=C([C@H](O)[C@@H](O)c1cccc(Cl)c1)C12CC3CC(CC(C3)C1)C2", "observedValue": "14.8 µM"}
{"compound": "CN1c2ccccc2C2=C(c3ccccc3)CC[C@@H](C(=O)N3C4CC5CC[C@@]4(CS3(=O)=O)C5(C)C)[C@@H]21 (stereo not given in full)", "observedValue": "> 100 µM"}

Go through the list and state TGI for each entry.
1. COc1cc2c(cc1OCc1ccccc1)NC(=O)[C@@H]1CCCN1C2=O
2. CCOC(=O)C1=C(C)NC(c2ccco2)=C(C#N)C1c1cccc([N+](=O)[O-])c1 (stereo not given)
3. O=c1c2cc3ccccc3n2c(=O)c2cc3ccccc3n12
4. Oc1ccccc1/C=N/N1C(=S)N(C23CC4CC(CC(C4)C2)C3)C(=Nc2ccccc2)C1=Nc1ccccc1
5. N#C/C(C(=O)NCc1ccccc1)=C(/N)N1CCCC1

> 100 µM
0.311 µM
> 100 µM
> 100 µM
> 100 µM

====

- Test system: M14 melanoma
- protocolText: NCI tumour cell line growth inhibition, 48 h
quantityMeasured: TGI (µM)
Numbers only, in µM.

Some compounds with recorded TGI:
{"compound": "Cc1cc(O)c(-c2ccc([C@@H](C)CN(C)C)cc2)c2c1[nH]c(=O)c1sccc12", "quantityMeasured": "TGI", "unitTag": "µM", "observedValue": 4.34}
{"compound": "CN(C)CCNCCCNc1c2ccccc2nc2cccc([N+](=O)[O-])c12", "quantityMeasured": "TGI", "unitTag": "µM", "observedValue": 0.0654}
{"compound": "CC[PH+](CC)CC.[Cl][Au]", "quantityMeasured": "TGI", "unitTag": "µM", "observedValue": 2.53}
{"compound": "CCOC(=O)C1=C(C)NC(c2ccco2)=C(C#N)C1c1cccc([N+](=O)[O-])c1 (stereo not drawn)", "quantityMeasured": "TGI", "unitTag": "µM", "observedValue": 3.28}

From here, focus on the item given below.
Supply measured TGI of CC(=O)/C(=N\Nc1ccc(Cl)cc1)C(C)=Nc1ccc(C)cc1 in your reply.
58

====

- Test system: HT29 colon
- protocolText: NCI tumour cell line growth inhibition, 48 h; in the data active means GI50 below about 0.43 µM; inactive means the rest
Your reply should match one of these outcome classes. active, inactive

Just curious, what result did CS(=O)(=O)N(c1cc(-c2ccc3ncnc(Nc4ccc(F)c(Cl)c4)c3c2)cnc1Cl)S(C)(=O)=O get here?
inactive

====

- Test system: DLD-1 colon
- protocolText: NCI tumour cell line growth inhibition, 48 h
quantityMeasured: TGI

Some molecules with recorded TGI:
{"molecule": "C1=CCCC=CCC1.C[PH+](C)C.C[PH+](C)C.C[PH+](C)C.[Cl-].[Ir]", "observedValue": "> 100 µM"}
{"molecule": "C[C@H]1C=C2C(=O)O[C@H]3CC[C@@H](C1)[C@@]23O", "observedValue": "10.7 µM"}
{"molecule": "CCC[CH2][Sn]1([CH2]CCC)[S]CC[N]1S(=O)(=O)c1ccc(C)cc1", "observedValue": "2.99 µM"}
{"molecule": "N#Cc1cccc(N2C(=O)C3C4C=CC(C3C2=O)C2C(=O)N(c3cccc(C#N)c3)C(=O)C42)c1 (stereo not given)", "observedValue": "> 46.4 µM"}
{"molecule": "CNC(=O)CN(CC(=O)O)C(=O)NC", "observedValue": "> 100 µM"}
{"molecule": "CC1=CCCC2C(C=O)(C1)CC(C)C2(CO)CC/C(=C/CO)CO (stereo not given)", "observedValue": "> 100 µM"}
{"molecule": "Nc1c2ccccc2nc2c(C(=O)Nc3ccc(S(N)(=O)=O)cc3)cccc12", "observedValue": "> 100 µM"}
{"molecule": "CC(=O)[O-].N.N.N.N.[Co+3].[O-][Cl+3]([O-])([O-])[O-].[OH3+]", "observedValue": "> 100 µM"}

Go through the list and state TGI for each entry.
1. COC(=O)CC[C@]12C[C@]13CC[C@]1(C)C4C(C)C[C@]5(CC(C)C(=O)O5)OC4CC1(C)C3CCC2C(C)(C)O (stereo not given in full)
2. COc1cc2cnc3c4cc(OCc5ccccc5)ccc4ccc3c2cc1OC

> 100 µM
> 100 µM

====

- Test system: MOLT-4 leukemia
- protocolText: NCI tumour cell line growth inhibition, 48 h
quantityMeasured: TGI

{"compound": "CC(C)=C/C(CC(O)(C(F)(F)F)C(F)(F)F)=N\\O", "TGI": "> 100 µM"}
{"compound": "Cc1cccc2c1CC(Cc1ccccc1C(=O)O)C2=O (centres undefined)", "TGI": "> 100 µM"}
{"compound": "CC1SC(c2ccc(Cl)cc2Cl)N(NC(=O)C(O)c2ccccc2)C1=O (centres undefined)", "TGI": "> 100 µM"}
{"compound": "Cc1ncc(CI)c(CI)c1O", "TGI": "41.6 µM"}

Go through the list and state TGI for each entry.
1. O=C1CSC(c2c[nH]c3ccccc23)N1c1ccc(Cl)cc1Cl (centres undefined)
2. COc1cc2nccc(Oc3ccc(NC(=O)c4cn(C(C)C)c(=O)n(-c5ccc(F)cc5)c4=O)cc3F)c2cc1OC
3. Cc1cc(-c2cc(C(C)(C)C)c(O)c(C(C)(C)C)c2)c(C)cc1-c1cc(C(C)(C)C)c(O)c(C(C)(C)C)c1
4. COc1ccc(C2C=C(c3ccc(C)cc3)N(c3ccc(OC)cc3[N+](=O)[O-])C3C(=O)OC(=O)C23)c(OC)c1 (centres undefined)
5. O=C1CC[C@@]23CC(=O)O[C@@H]2CCCC3C1 (some centres undefined)
6. CC1=CCCC2C(C=O)(C1)CC(C)C2(CO)CC/C(=C/CO)CO (centres undefined)
7. COc1cc(C(=O)c2cocc2C(=O)c2ccc3c(c2)OCO3)cc(OC)c1OC
8. CN1C2=Nc3n(c4ccccc4[n+]3C)CN2c2ccccc21

["> 100 µM", "> 100 µM", "> 100 µM", "91.6 µM", "> 100 µM", "> 100 µM", "> 74.7 µM", "> 100 µM"]

Go through the list and state TGI for each entry.
1. C=C1C[C@@H]2C[C@@H](C)CC(O)[C@]2(CCCN)C1O (some centres undefined)
2. C[C@@H]1CC[C@@]2(NC1)O[C@H]1C[C@H]3[C@@H]4CC[C@H]5C[C@@H](O)CC[C@]5(C)[C@H]4CC[C@]3(C)[C@H]1[C@@H]2C
3. O=C([C@H](O)[C@@H](O)c1cccc(Cl)c1)C12CC3CC(CC(C3)C1)C2
4. CC(=N/NC(=S)N(C)C)/C(=N\NC(=S)N(C)C)c1ccccc1
5. O=C1NC(c2ccccc2)C2(C(=O)O)CN(C3CC3)c3cc(N4CCNCC4)c(F)cc3C2N1 (centres undefined)
6. NC(=O)c1ccc[n+](C2=C([O-])c3ccccc3C(=O)/C2=N\S(=O)(=O)c2ccccc2)c1
7. O=C([O-])CC(=O)[O-].[NH-][C@@H]1CCCC[C@H]1[NH-].[Pt+4]
8. C1=CCCC=CCC1.C[PH+](C)C.C[PH+](C)C.C[PH+](C)C.[Cl-].[Ir]

1: > 100 µM; 2: > 100 µM; 3: > 100 µM; 4: > 100 µM; 5: > 100 µM; 6: 81.5 µM; 7: 61.4 µM; 8: > 100 µM

Go through the list and state TGI for each entry.
1. O=C[C@@H](CO)O[C@H](C=O)n1cnc2c(=O)[nH]cnc21
2. CC(=O)[CH-]C(=O)c1ccccc1.CC(=O)[CH-]C(=O)c1ccccc1.[O-]c1ccc2c(c1)OCO2.[O-]c1ccc2c(c1)OCO2.[Ti+4]
3. CCOC(=O)c1c(SCc2cc(=O)[nH]c(=O)[nH]2)n(-c2ccccc2)c(=S)n(-c2ccccc2)c1=O

["686 µM", "51.5 µM", "> 100 µM"]

Go through the list and state TGI for each entry.
1. CC(=O)/C(=N\Nc1ccc(Cl)cc1)C(C)=Nc1ccc(C)cc1
2. CC(=O)NN1C(=O)C(Cc2ccccc2)c2ccccc21 (centres undefined)
3. CCOC(=O)N1CCN(c2c(N)nc(C)[nH]c2=O)CC1
4. C=C1C(=O)O[C@H]2C[C@@H]1C(=O)CC(C)CCCC(C)=CCC[C@@]2(C)O (some centres undefined)

1. > 100 µM
2. > 100 µM
3. > 100 µM
4. > 25 µM

Ref: PubChem BioAssay (NCI)
